# target under test: human P2X7 receptor (Homo sapiens (Human))
# procedure details: P2X7 FLIPR antagonist assay (BzATP-stimulated, 293 HEK cells stably expressing P2X7 receptor)
# run parameters: Table 1, exemplified IC50 values; antagonist activity vs BzATP
# Protocol: This example illustrates representative assays for use in evaluating the test compounds for antagonist activity. Compounds of the present invention were tested in vitro for their ability to act as antagonists to the P2X7 receptor. […] B) Agonist only mixture was prepared with BzATP at a single concentration in buffer (concentration determined by dose response). […]
pIC50: −log10 of the molar value.
observed property: pIC50

* Cc1ncc(C(CNC(=O)c2c(F)cccc2Cl)c2ccncc2)cn1 (stereo not shown) | 6.19
* O=C(NCC1(c2cnc(C(F)(F)F)nc2)CCOCC1)c1ccccc1Cl | 5.36
* O=C(NCC(CC1CC1)c1ccc(C(F)F)nc1)c1cccc(Cl)c1Cl (single isomer, unassigned; (-)) [(−)2,3-dichloro-N-[3-cyclopropyl-2-[6-(difluoromethyl)-3-pyr] | 8.72
* Cc1ncc(C2(C(C)NC(=O)c3c(F)cccc3Cl)CCOCC2)cn1 (stereo not shown) | 7.26

---

# target under test: human P2X7 receptor (Homo sapiens (Human), UniProt Q99572)
# Sequence (Q99572 whole entry): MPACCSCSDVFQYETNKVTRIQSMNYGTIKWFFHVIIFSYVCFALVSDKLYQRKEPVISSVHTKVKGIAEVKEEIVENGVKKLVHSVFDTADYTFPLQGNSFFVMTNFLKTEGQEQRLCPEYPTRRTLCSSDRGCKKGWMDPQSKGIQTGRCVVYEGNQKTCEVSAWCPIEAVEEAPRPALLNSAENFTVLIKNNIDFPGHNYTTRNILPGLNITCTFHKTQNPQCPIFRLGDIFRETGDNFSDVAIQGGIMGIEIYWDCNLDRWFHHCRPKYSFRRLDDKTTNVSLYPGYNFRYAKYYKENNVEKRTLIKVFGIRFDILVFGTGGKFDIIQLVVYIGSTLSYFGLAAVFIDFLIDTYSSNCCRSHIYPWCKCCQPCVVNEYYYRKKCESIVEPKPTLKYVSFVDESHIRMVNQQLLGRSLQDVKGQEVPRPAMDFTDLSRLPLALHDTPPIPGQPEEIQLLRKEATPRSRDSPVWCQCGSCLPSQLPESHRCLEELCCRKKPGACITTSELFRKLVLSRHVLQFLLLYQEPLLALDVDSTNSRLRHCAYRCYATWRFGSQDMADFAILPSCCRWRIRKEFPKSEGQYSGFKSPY
# procedure details: P2X7 FLIPR antagonist assay (BzATP-stimulated, 293 HEK cells stably expressing P2X7 receptor)
# run parameters: Table 1, exemplified IC50 values; antagonist activity vs BzATP
observed property: IC50 (nM)

- Cc1ncc(C(CNC(=O)c2cccc(Cl)c2Cl)C2CCC(F)(F)CC2)cn1 (single isomer, unassigned; (+)) [(+)2,3-dichloro-N-[2-(4,4-difluorocyclohexyl)-2-(2-methylpyr]: 8.4
- Cc1ncc(C(CNC(=O)c2cccc(Cl)c2Cl)c2ccncc2)cn1 (stereo not drawn): 50
- Cc1ncc(C(CNC(=O)c2cccc(Cl)c2Cl)C2CCC(F)(F)CC2)cn1 (single isomer, unassigned; (-)) [(−)2,3-dichloro-N-[2-(4,4-difluorocyclohexyl)-2-(2-methylpyr]: 16
